assay: Test 3: acute toxicity; settings: mouse, in vivo, po; Table 4, reference compounds (IV); read-out: LD50
Listed compounds paired with reported LD50 at 72 h

Compound: CCOC(=O)C(Oc1ccc(C(=O)c2cccc(F)c2)cc1)c1ccccc1 (stereo not shown)
Qualifier operator: =
LD50 at 72 h [mg/kg]: 2000
--
Compound: CCOC(=O)C(Oc1ccc(C(=O)c2ccc(Cl)cc2)cc1)c1ccccc1 (stereo not shown)
Qualifier operator: =
LD50 at 72 h [mg/kg]: 3000
--
Compound: CCOC(=O)C(Oc1ccc(C(=O)c2ccccc2Cl)cc1)c1ccccc1 (stereo not shown)
Qualifier operator: >
LD50 at 72 h [mg/kg]: 10000
--
Compound: CCOC(=O)C(Oc1ccc(C(=O)c2ccccc2F)cc1)c1ccccc1 (stereo not shown)
Qualifier operator: =
LD50 at 72 h [mg/kg]: 1500
--
Compound: CCOC(=O)C(Oc1ccc(C(=O)c2ccccc2C)cc1)c1ccccc1 (stereo not shown)
Qualifier operator: >
LD50 at 72 h [mg/kg]: 2000
--
Compound: CCOC(=O)C(Oc1ccc(C(=O)c2ccc(F)cc2)cc1)c1ccccc1 (stereo not shown)
Qualifier operator: =
LD50 at 72 h [mg/kg]: 1500
--
Compound: O=C(c1ccccc1)c1ccc(OC(C(=O)O)c2ccccc2)cc1 (stereo not shown)
Qualifier operator: >
LD50 at 72 h [mg/kg]: 3000

* * *

assay: Test 3: acute toxicity; conditions: mouse, in vivo; Table 3; male mice, oral in olive oil, 72 hours; read-out: LD50 oral
Listed compounds paired with reported LD50 at 72 h

Compound: CCOC(=O)C(Oc1ccc(C(=O)c2cccc(F)c2)cc1)C1CCCCC1 (stereo not drawn)
LD50 at 72 h, mg/kg: 3500

Compound: CCOC(=O)C(Oc1ccc(C(=O)c2ccccc2F)cc1)C1CCCCC1 (stereo not drawn)
LD50 at 72 h, mg/kg: 1000

Compound: CCOC(=O)C(Oc1ccc(C(=O)c2ccc(F)cc2)cc1)C1CCCCC1 (stereo not drawn)
LD50 at 72 h, mg/kg: 1000

Compound: CCOC(=O)C(C)(C)Oc1ccc(Cl)cc1 [***, ethyl-α-(p-chlorophenoxy)-isobutylate, reference compound]
LD50 at 72 h, mg/kg: 1500

Compound: CCOC(=O)C(Oc1ccc(C(=O)c2cccc(Cl)c2)cc1)C1CCCCC1 (stereo not drawn)
LD50 at 72 h, mg/kg: 2500

Compound: CCOC(=O)C(Oc1ccc(C(=O)c2ccc(OC)cc2)cc1)C1CCCCC1 (stereo not drawn)
LD50 at 72 h, mg/kg: 2500

Compound: CCOC(=O)C(Oc1ccc(C(=O)c2ccccc2Cl)cc1)C1CCCCC1 (stereo not drawn)
LD50 at 72 h, mg/kg: 1000

Compound: CCOC(=O)C(Oc1ccc(C(=O)c2cccc(C)c2)cc1)C1CCCCC1 (stereo not drawn)
LD50 at 72 h, mg/kg: 3000

Compound: CCOC(=O)C(Oc1ccc(C(=O)c2ccccc2C)cc1)C1CCCCC1 (stereo not drawn)
LD50 at 72 h, mg/kg: 700

Compound: CCOC(=O)C(Oc1ccc(C(=O)c2ccc(C)cc2)cc1)C1CCCCC1 (stereo not drawn)
LD50 at 72 h, mg/kg: 3500

Compound: CCOC(=O)C(Oc1ccc(C(=O)c2ccccc2)cc1)C1CCCCC1 (stereo not drawn)
LD50 at 72 h, mg/kg: 1000

Compound: CCOC(=O)C(Oc1ccc(C(=O)c2ccc(Cl)cc2)cc1)C1CCCCC1 (stereo not drawn)
LD50 at 72 h, mg/kg: 2500
